system: CCRIS mutagenicity, Ames/micronucleus/aberration tests; assay: CCRIS mutagenicity studies; conditions: Test System: AMES SALMONELLA TYPHIMURIUM; Strain/Indicator: TA97; Metabolic Activation: NONE; Method: STANDARD PLATE
Calls of active or inactive are those of the source. How the calls were made is not given here.
Pick one: class 1 (active), class 0 (inactive)

Look over these answered cases.
- CCOc1ccc(C(C)(C)C)cc1NC(=O)C(=O)Nc1ccccc1CC: class 0
- Fc1ccccn1: class 0
- O=C(O)C[C@H](NC(=O)COc1cc(Cl)c(Cl)cc1Cl)C(=O)O: class 0

Exam item: # lookup: test call for O=C(O)CC[C@H](NC(=O)COc1cc(Cl)c(Cl)cc1Cl)C(=O)O
Marked response: class 0

Exam item: Answer briefly: the call reported for O=C1C=CC(=O)C=C1 in this assay.
Marked response: class 0

Exam item: # outcome recorded in this test, key = N/C(=N\O)c1cc(O)c(O)c(O)c1
Marked response: class 1

Exam item: Short answer needed: outcome of this test for CCOC(=O)c1[nH]c2ccccc2c1N=Cc1ccc([N+](=O)[O-])cc1 ?
Marked response: class 0

Exam item: # outcome recorded in this test, key = CC(C)CC(C)Nc1ccc(Nc2ccccc2)cc1 (configuration not stated)
Marked response: class 0

Exam item: // return assay outcome for COc1ccc2[nH]cc(CCNC(C)=O)c2c1
Marked response: class 0

Exam item: Just curious, what result did O=S(c1cc(Cl)cc(Cl)c1O)c1cc(Cl)cc(Cl)c1O get here?
Marked response: class 0
